These entries and their values trace back to ChEMBL document CHEMBL1138429.

target or system: UniProt P25929
method summary: Displacement of [125]peptide YY from human recombinant Y1 receptor expressed in CHO cells
measure: pIC50
The read-out pIC50 is expressed as -log10 of concentration in moles per litre.

Worked set:
1) CN1CCN(C(=O)c2cc(Oc3ccc(Cl)cc3)c3c(c2)c2ccccc2n3C[C@@H]2CCN(C3CC3)C[C@@H]2F)CC1	6.73
2) O=C(c1cc(Oc2ccc(Cl)cc2)c2c(c1)c1ccccc1n2C[C@@H]1CCNC[C@@H]1F)N1CCc2nc[nH]c2C1	5.54
3) O=C(c1cc(Oc2ccc(Cl)cc2)c2c(c1)c1ccccc1n2C[C@@H]1CCNC[C@@H]1F)N1CCN(CCO)CC1	6.08

Give the value of pIC50 reported for the following: CN1CCN(C(=O)c2cc(Oc3ccc(Cl)cc3)c3c(c2)c2ccccc2n3C[C@@H]2CCN(C)C[C@H]2F)CC1 7.02

Give the value of pIC50 reported for the following: CN1CCN(C(=O)c2cc(Oc3ccc(Cl)cc3)c3c(c2)c2ccccc2n3CCCN2CCCCC2)CC1 7.30

Give the value of pIC50 reported for the following: CN1CCN(C(=O)c2cc(Oc3ccc(Cl)cc3)c3c(c2)c2ccccc2n3C[C@@H]2CCNC[C@H]2F)CC1 7.28

Give the value of pIC50 reported for the following: CN1CCN(C(=O)c2cc(Oc3ccc(Cl)cc3)c3c(c2)c2ccccc2n3CC2CCCNC2)CC1 (stereo not drawn) 6.97

Give the value of pIC50 reported for the following: O=C(c1cc(Oc2ccc(Cl)cc2)c2c(c1)c1ccccc1n2C[C@@H]1CCNC[C@@H]1F)N1CCC(O)CC1 5.11

---

target or system: Neuropeptide Y receptor type 1 (Homo sapiens, UniProt P25929)
Sequence (P25929 whole entry): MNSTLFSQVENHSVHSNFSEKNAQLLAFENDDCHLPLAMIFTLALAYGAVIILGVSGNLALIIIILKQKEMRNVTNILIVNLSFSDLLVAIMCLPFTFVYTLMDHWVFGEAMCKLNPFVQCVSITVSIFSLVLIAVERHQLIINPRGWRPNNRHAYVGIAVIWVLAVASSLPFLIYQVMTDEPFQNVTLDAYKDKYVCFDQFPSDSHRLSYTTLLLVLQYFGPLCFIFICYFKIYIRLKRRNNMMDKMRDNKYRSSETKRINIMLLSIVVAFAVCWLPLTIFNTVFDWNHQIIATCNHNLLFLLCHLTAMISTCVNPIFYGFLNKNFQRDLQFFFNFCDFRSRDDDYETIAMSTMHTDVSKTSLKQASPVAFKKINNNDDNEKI
method summary: Displacement of [125]peptide YY from human recombinant Y1 receptor expressed in CHO cells
Threshold 0.5 µM. IC50 below it: condition met. IC50 at it or above: condition not met.

// known answers, use as guide
1) CCN1CCCC1CNC(=O)c1cc(Oc2ccc(Cl)cc2)c2c(c1)c1ccccc1n2C[C@@H]1CCNC[C@H]1F (stereo partly specified)	condition met
2) CN(C)CCNC(=O)c1cc(Oc2ccc(Cl)cc2)c2c(c1)c1ccccc1n2C[C@@H]1CCNC[C@H]1F	condition met
3) CN(C)C1CCN(C(=O)c2cc(Oc3ccc(Cl)cc3)c3c(c2)c2ccccc2n3C[C@@H]2CCNC[C@H]2F)C1 (stereo partly specified)	condition met
4) O=C(c1cc(Oc2ccc(Cl)cc2)c2c(c1)c1ccccc1n2C[C@@H]1CCNC[C@@H]1F)N1CCn2ccnc2C1	condition not met
5) CN1CCC(Cn2c3ccccc3c3cc(C(=O)N4CCN(C)CC4)cc(Oc4ccc(Cl)cc4)c32)CC1	condition met

Then this compound:
A record lists O=C(c1cc(Oc2ccc(Cl)cc2)c2c(c1)c1ccccc1n2C[C@@H]1CCNC[C@@H]1F)N1CCN(CC(F)(F)F)CC1 . Is its IC50 below 0.5 µM? condition not met
